Quick list: Activity per entry.
- Tested on: Rattus norvegicus
- protocol-notes: Antiinflammatory activity in Wistar albino rat assessed as inhibition of carrageenan-induced increase in paw edema at 10 mg/kg, po after 90 mins (reference value: 38.7 %)
- Type: functional
- Set-up: scale not given: the % may be the effect or the level left
test-readout: Activity (%)

| compound | test-readout | quantitative-readout |
| --- | --- | --- |
| CS(=O)(=O)Nc1ccc([N+](=O)[O-])cc1Oc1ccccc1 [NIMESULIDE] | Activity | 23.4 |
| CCOC(=O)c1c(-c2ccccc2)oc2ccc(Oc3ccc4ccccc4c3)cc12 | Activity | 32.6 |
| CCOC(=O)c1c(C)oc2ccc(Oc3ccc(OC)cc3)cc12 | Activity | 12.3 |
| CCOC(=O)c1c(-c2ccccc2)oc2ccc(Oc3ccccc3C)cc12 | Activity | 24.4 |
| CCOC(=O)c1c(C)oc2ccc(Oc3ccccc3)cc12 | Activity | 23.8 |
| CCOC(=O)c1c(-c2ccccc2)oc2ccc(Oc3ccc(C)cc3)cc12 | Activity | 32.6 |
| CCOC(=O)c1c(C)oc2ccc(Oc3ccc(C)cc3)cc12 | Activity | 25.8 |
| CCOC(=O)c1c(-c2ccccc2)oc2ccc(Oc3ccccn3)cc12 | Activity | 32.6 |
| CCOC(=O)c1c(C)oc2ccc(Oc3ccccn3)cc12 | Activity | 18.9 |
| CCOC(=O)c1c(-c2ccccc2)oc2ccc(Oc3ccccc3)cc12 | Activity | 28.4 |
| CCOC(=O)c1c(C)oc2ccc(Oc3ccccc3C)cc12 | Activity | 20.4 |
